test system: UACC-62 melanoma; assay: NCI-60 one-dose screen, 48 h; settings: 10 µM unless noted
This is part of a sample that, as a whole, favours compounds with a hit. Of some 83,000 tested, about 20% had one in any assay. Activity calls are given as the source filed them. Rule for the calls: active = growth percent below 10; inactive = the rest.
Return exactly one item of YES for active, NO for inactive

Kindly provide the recorded test outcome for the following compound: "CCN(CCN(C)C)C(=O)CNCc1cc(C(N)=O)ccn1"
NO

Hello, I am checking results. What call was entered for CC(=O)c1cnc2ccc(-c3cc(Cl)c(O)c(Cl)c3)nc2c1NC1CCC(CN(C)C)CC1 (stereo not given) ?
YES

For "Oc1ccc(C(c2ccc(O)cc2)C(Cl)(Cl)Cl)cc1" , which call appears in the assay record?
NO

Test call, this compound: "CN1CCN(c2nc(NCCNc3ccnc4cc(Cl)ccc34)c3ccccc3n2)CC1"
YES

Per the assay record, what outcome was assigned to "CCN(CC)CCOc1ccc(/C(=C(\C)c2ccc(Cl)cc2)c2ccc(Cl)cc2)cc1" ?
NO

Would you mind telling me which call this test gave "COc1ccc(-n2c(=O)c3ccccc3n(Cc3ccc(C(=O)NO)cc3)c2=O)cc1" ?
YES

Next:
Could you check what this test reported for "CCCCCCCCCNCCCCCCCCC" ?
NO

Kindly provide the recorded test outcome for the following compound: "CC(C)(O)CC(=O)NCCn1ccc2ncnc(Nc3ccc(Oc4cccc(C(F)(F)F)c4)c(Cl)c3)c21"
YES

Recorded test outcome, item "Cc1cc(C(=O)NOCCO)c(Nc2ccc(I)cc2F)n(C)c1=O"
YES

Each compound tested received a call. Report the one for "O=c1[nH]ccc2c(S(=O)(=O)N3CCCNCC3)cccc12" .
NO

###

system: SR leukemia; test: NCI-60 one-dose screen, 48 h; conditions: 10 µM unless noted
The panel holds about 83,000 compounds, 20% with a hit somewhere; the sample as a whole holds those more often. The source made the active and inactive calls. How the source made its calls: active means growth percent below 10; inactive means the rest.
Returns: one label drawn from T = active, F = inactive

Worked examples follow.
What did the test return for CC(=O)c1cnc2ccc(-c3cc(Cl)c(O)c(Cl)c3)nc2c1NC1CCC(CN(C)C)CC1 (stereo not drawn) ?
T

Please share the test call associated with "O=C(Nc1cnn2ccc(N3CCC[C@@H]3c3cc(F)ccc3F)nc12)N1CC[C@H](O)C1" .
F

Answer briefly: the call reported for "Cc1cn(-c2cc(NC(=O)c3ccc(C)c(Nc4nccc(-c5cnccn5)n4)c3)cc(C(F)(F)F)c2)cn1" in this assay.
F

Short answer needed: outcome of this test for "CO[C@@H](C(=O)N1Cc2[nH]nc(NC(=O)c3ccc(N4CCN(C)CC4)cc3)c2C1)c1ccccc1" ?
T

***
Identify the outcome logged in this assay for the compound shown: "ClCc1ccc(-c2ccc(Cn3cnc4nc(Cl)nc(Cl)c43)cc2)cc1"
T

Given "Cc1c(NC(=O)OC[C@@H]2COCCN2)cn2ncnc(Nc3ccc4c(cnn4Cc4cccc(F)c4)c3)c12" , state the outcome it received in this test.
T

Please state the recorded outcome for this compound: "COc1cc2ncnc(Nc3ccc(O)cc3)c2cc1OC"
F

What did this assay record as the result for "CCc1nc2cc(F)c(/C=C/C(=O)NO)cc2c(=O)n1CCc1ccccc1" ?
F

Lab log entry: "COc1cc(OC)c(C(=O)/C=C/c2cc3c(cc2OCc2ccccc2)OC(C)(C)CC3)cc1CC=C(C)C" — outcome as called in the assay?
F

Tell me the assay call for "Nc1c(C(=O)c2ccccc2)sc2nc(-c3cccs3)ccc12" please.
F

Any idea what this test logged for "Cc1[nH]c(/C=C2\C(=O)Nc3ccc(F)cc32)c(C)c1C(=O)NC[C@H](O)CN1CCOCC1" ?
T
